Here the recorded viability at 96 h is given for each entry.
assay.details: Cytotoxicity against human MCF-10A cells assessed as cell viability incubated for 96 hrs by MTT assay
Assay type: toxicity, cell-based
Parameters: concentration or dose not given beside the values
assay.setup: read-out: Activity

{"columns": ["compound", "unit.text", "viability at 96 h"],
 "data": [
  ["COc1cc(/C=C2\\CCc3ccc(Cl)cc3C2=O)c(Br)c(OC)c1OC", "%", 90],
  ["COc1cc(/C=C2\\CCc3ccc(Br)cc3C2=O)c(Br)c(OC)c1OC", "%", 92],
  ["COc1cccc(/C=C2\\CCc3c(OC)ccc(OC)c3C2=O)c1Cl", "%", 98],
  ["COc1cccc(/C=C2\\CCc3c(OC)cccc3C2=O)c1Cl", "%", 93],
  ["CCN(CC)CCO/N=C1\\C(=C\\c2cc(OC)c(OC)c(OC)c2Br)CCc2ccc([N+](=O)[O-])cc21", "%", 97],
  ["COc1ccc(/C=C2\\COC/C(=C\\c3ccc(OC)c(OC)c3Cl)C2=O)c(Cl)c1OC", "%", 89],
  ["COc1cccc(/C=C2\\CCc3ccc(Br)cc3C2=O)c1Cl", "%", 94],
  ["COc1cccc2c1CC/C(=C\\c1cc(OC)c(OC)c(OC)c1Br)C2=O", "%", 94],
  ["COc1ccc(/C=C2\\CC(C)c3ccccc3C2=O)c(Cl)c1OC (stereo not given)", "%", 99],
  ["COc1ccc(/C=C2\\CCc3ccc(Cl)cc3C2=O)c(Cl)c1OC", "%", 94]
]}
